Header: IC50 / Melanocortin receptor 3 (Homo sapiens) / multiple publications

Below: 5 compounds and their reported IC50.
compound=CC[C@H](NC(C)=O)c1cc(Cl)ccc1C1CCN(C(=O)[C@@H]2CN(C(C)(C)C)C[C@H]2c2ccc(Cl)cc2F)CC1 assay_metric=IC50 endpoint_result="1.49 µM"
compound="CCN(C(C)=O)C(C)c1ccccc1N1CCN(C(=O)[C@H](CC(=O)NC2CCC2)Cc2ccc(Cl)cc2)CC1 (stereo partly drawn)" assay_metric=IC50 endpoint_result="> 10 µM"
compound="CC(=O)N[C@@H](Cc1ccccc1)C(=O)N(CCCCN=C(N)N)C1CCC(N(C)C(C)=O)CC1 (stereo partly drawn)" assay_metric=IC50 endpoint_result="> 10 µM"
compound=CC[C@H](NC(C)=O)c1cc(Cl)ccc1C1CCN(C(=O)[C@H]2CN(C(C)(C)C)C[C@@H]2c2ccc(Cl)cc2Cl)CC1 assay_metric=IC50 endpoint_result="4.29 µM"
compound=CCCN1CCN(C(=O)C[C@H](Cc2ccc(Cl)cc2)C(=O)N2CCN(c3ccccc3N(CC3CC3)S(C)(=O)=O)CC2)CC1 assay_metric=IC50 endpoint_result="> 10 µM"

Consider the compound shown here: CCOC(=O)N1CCN(C(=O)C[C@H](Cc2ccc(Cl)cc2)C(=O)N2CCN(c3ccccc3N(CC3CC3)S(C)(=O)=O)CC2)CC1 What is its recorded IC50?
> 10 µM

One more compound: CC(=O)N[C@@H](Cc1ccccc1)C(=O)N[C@H](CCCN=C(N)N)C(=O)N[C@H](Cc1c[nH]c2ccccc12)C(N)=O
> 10 µM

One more compound: CC(=O)N[C@H](Cc1ccccc1)C(=O)N[C@@H](CCCNC(=N)N)C(=O)N[C@H](Cc1c[nH]c2ccccc12)C(N)=O
> 10 µM

One more compound: CC(=O)N[C@H]1CC(=O)NCCCC[C@@H](C(=O)N2CCC[C@H]2C(=O)N2CCC[C@H]2C(=O)N[C@@H](CCCCN)C(=O)N[C@@H](CC(=O)O)C(N)=O)NC(=O)[C@H](Cc2c[nH]c3ccccc23)NC(=O)[C@H](CCCNC(=N)N)NC(=O)[C@@H](Cc2ccccc2)NC(=O)[C@H](Cc2c[nH]cn2)NC(=O)[C@H](CCC(=O)O)NC1=O
> 1 µM

One more compound: CC(=O)N[C@H]1CSSC[C@@H](C(=O)N2CCC[C@H]2C(=O)N2CCC[C@H]2C(=O)N[C@@H](CCCCN)C(=O)N[C@@H](CC(=O)O)C(N)=O)NC(=O)[C@H](Cc2c[nH]c3ccccc23)NC(=O)[C@H](CCCNC(=N)N)NC(=O)[C@@H](Cc2ccccc2)NC(=O)[C@@H]2CCCN2C(=O)[C@H](CCC(=O)O)NC1=O
> 1 µM

One more compound: CC[C@H](NC(C)=O)c1cc(Cl)ccc1C1CCN(C(=O)[C@H]2CN(C(C)(C)C)C[C@@H]2c2ccc(Br)cc2F)CC1
2.95 µM

One more compound: CC(=O)N[C@@H](Cc1c[nH]cn1)C(=O)N[C@@H](Cc1ccccc1)C(=O)N[C@@H](CCCN=C(N)N)C(=O)N[C@H](Cc1c[nH]c2ccccc12)C(N)=O
> 10 µM

One more compound: CC(=O)N[C@@H](Cc1cnc[nH]1)C(=O)N[C@H](Cc1ccccc1)C(=O)N[C@@H](CCCNC(=N)N)C(=O)N[C@@H](Cc1c[nH]c2ccccc12)C(N)=O
> 10 µM

----------
Header: IC50 / UniProtKB P41968 / multiple publications

compound=CC(=O)N[C@H]1CSSC[C@H](C(=O)N2CCC[C@H]2C(=O)N2CCC[C@H]2C(=O)N[C@@H](CCCCN)C(=O)N[C@@H](CC(=O)O)C(N)=O)NC(=O)[C@H](Cc2c[nH]c3ccccc23)NC(=O)[C@H](CCCNC(=N)N)NC(=O)[C@@H](Cc2ccccc2)NC(=O)[C@H](Cc2c[nH]cn2)NC(=O)[C@H](CCC(=O)O)NC1=O assay_metric=IC50 endpoint_result="5.6 µM"

Consider the compound shown here: CC[C@H](NC(C)=O)c1cc(Cl)ccc1C1CCN(C(=O)[C@@H]2CN(C(C)(C)C)C[C@H]2c2ccc3ccccc3c2)CC1 What is its recorded IC50?
12.2 µM

One more compound: CCN(C(C)=O)C(C)c1ccccc1N1CCN(C(=O)[C@H](CC(=O)NCc2ccccc2F)Cc2ccc(Cl)cc2)CC1 (stereo not given in full)
> 10 µM

One more compound: CC[C@H](NC(C)=O)c1cc(Cl)ccc1C1CCN(C(=O)[C@H]2CN(C(C)(C)C)C[C@@H]2c2ccc(C(F)(F)F)cc2)CC1
3.78 µM

One more compound: CC(=O)N[C@H](Cc1ccccc1)C(=O)N(CCCCNC(=N)N)C1CCC(N(CCc2c[nH]c3ccccc23)C(C)=O)CC1 (stereo in doubt; cis)
0.28 µM
